Biological target: MDM2 (Homo sapiens)
Construct: GST (N); His6 (N); made in house; host or cells: E. coli BL21 (DE3) Rosetta T1R
Experiment: Surface plasmon resonance (SPR) binding to MDM2
Conditions: Table 1; MDM2
Starred links: 1 amine or outer side, 2 acyl side, 3 side chain; linkers in the order of their positions; H or OH if unused. Positions of bridges follow the written chain, without caps; N, C: chain ends. Non-standard residues stand in square brackets, D forms with d. Residues, ends and D or L forms follow the SMILES beside them. dPhe(4-CF3) = N[C@H](Cc1ccc(C(F)(F)F)cc1)C(=O)O; dTrp(6-F) = N[C@H](Cc1c[nH]c2cc(F)ccc12)C(=O)O; X1 = C[C@](CCCCC=[*:3])(N[*:1])C(=O)[*:2]; R5 = C=CCCC[C@@](C)(N)C(=O)O
MEASURED ENDPOINT: Kd (µM)
One number for each entry, in µM.

{"columns": ["MOLECULE", "Kd, µM"],
 "data": [
  ["CC(C)C[C@@H](NC(=O)[C@@]1(C)CCC/C=C\\CCC[C@@](C)(NC(=O)[C@@H](C)NC(=O)[C@@H](Cc2ccc(O)cc2)NC(=O)[C@@H](Cc2c[nH]c3cc(F)ccc23)NC(=O)[C@@H](C)NC(=O)[C@H](N)[C@H](C)O)C(=O)N[C@H](Cc2ccc(C(F)(F)F)cc2)C(=O)N[C@H](CCC(=O)O)C(=O)N[C@H](CCCCN)C(=O)N1)C(=O)N[C@H](CCCNC(=N)N)C(N)=O", 0.059]
]}

Kindly state the measured Kd obtained for CC(C)C[C@@H](NC(=O)[C@@H](CC(C)C)NC(=O)[C@@]1(C)CCCC/C=C\CCC[C@@](C)(NC(=O)[C@@H](Cc2ccc(O)cc2)NC(=O)[C@@H](Cc2c[nH]c3cc(F)ccc23)NC(=O)[C@@H](C)NC(=O)[C@H](N)[C@H](C)O)C(=O)N[C@H](CC(N)=O)C(=O)N[C@H](Cc2ccc(C(F)(F)F)cc2)C(=O)N[C@H](CCC(=O)O)C(=O)N1)C(=O)N[C@H](CCCNC(=N)N)C(N)=O [^DPMI-δ (5-9)] (H-[dT][dA][dTrp(6-F)][dY][R5][dN][dPhe(4-CF3)][dE][X1][dL][dL][dR]-NH2; staple (Z) 5-9) with MDM2 (Homo sapiens).
0.029
